System: U-937 cells overexpressing human Bcl-2 (U-937/Bcl-2)
method_notes: MTT cytotoxicity assay, U-937/Bcl-2
Type: cell-based
setup_conditions: Homo sapiens, U-937, 72 h, U-937/Bcl-2, MTT, read-out: IC50, inhibition of cell growth
Task for the reader: assign each of the following compounds its reported IC50.
Answers are plain numbers, in nM.

substance_smiles: CCOC(=O)c1[nH]c2ccc(OC)cc2c1/C=C/C(=O)c1cc(OC)c(OC)c(OC)c1
result_unit: nM
IC50: 700

Proceeding to the next compound to report its IC50.
Exercise: Reported IC50 for U-937 cells overexpressing human Bcl-2 (U-937/Bcl-2), given CCOC(=O)c1[nH]c2cc(OC)ccc2c1/C=C/C(=O)c1cc(OC)c(OC)c(OC)c1 ?
Solution: 1000

Values compiled from paper PMC6116705.
